The values you see were collected from BindingDB's records for doi:10.1021/jm010087e.

Entries and their log10 Ki
assay: Inhibitory activity against clostridium histolyticum collagenase
Remember, log10 of Ki, in nM.

CC(C(=O)O)N(Cc1ccccc1[N+](=O)[O-])C(=O)Nc1ccc(Cl)c(Cl)c1 (configuration not stated) yielded log10 Ki of 3.72

Cc1ccc(S(=O)(=O)NC(=O)N(Cc2ccccc2[N+](=O)[O-])C(C)C(=O)O)cc1 (configuration not stated) yielded log10 Ki of 3.49

CC(C(=O)NO)N(Cc1ccccc1[N+](=O)[O-])S(=O)(=O)N(C)C (configuration not stated) yielded log10 Ki of 1.90

CC(C(=O)NO)N(Cc1ccccc1[N+](=O)[O-])C(=O)Nc1ccc(F)cc1F (configuration not stated) yielded log10 Ki of 1.08

COc1ccc(S(=O)(=O)N(Cc2ccccc2[N+](=O)[O-])C(C)C(=O)O)cc1 (configuration not stated) yielded log10 Ki of 3.76

Further cases:
CC(=O)Nc1ccc(S(=O)(=O)N(Cc2ccccc2[N+](=O)[O-])C(C)C(=O)NO)cc1 (configuration not stated) yielded log10 Ki of 1.08

CC(C(=O)O)N(Cc1ccccc1[N+](=O)[O-])S(=O)(=O)C(Cl)(Cl)Cl (configuration not stated) yielded log10 Ki of 3.70

CC(C(=O)O)N(Cc1ccccc1[N+](=O)[O-])S(=O)(=O)c1ccc(Br)cc1 (configuration not stated) yielded log10 Ki of 4.00

CC(C(=O)O)N(Cc1ccccc1[N+](=O)[O-])S(=O)(=O)c1cc(Cl)ccc1Cl (configuration not stated) yielded log10 Ki of 3.53

CC(C(=O)O)N(Cc1ccccc1[N+](=O)[O-])S(=O)(=O)c1cccc([N+](=O)[O-])c1 (configuration not stated) yielded log10 Ki of 3.72

CC(C(=O)O)N(Cc1ccccc1[N+](=O)[O-])S(=O)(=O)c1cccc2c(N(C)C)cccc12 (configuration not stated) yielded log10 Ki of 3.32

CC(C(=O)NO)N(Cc1ccccc1[N+](=O)[O-])Sc1ccccc1[N+](=O)[O-] (configuration not stated) yielded log10 Ki of 1.08

CC(C(=O)NO)N(Cc1ccccc1[N+](=O)[O-])S(=O)(=O)c1ccc(C(=O)O)cc1 (configuration not stated) yielded log10 Ki of 0.85

CC(C(=O)NO)N(Cc1ccccc1[N+](=O)[O-])S(=O)(=O)C(F)(F)C(F)(F)C(F)(F)C(F)(F)C(F)(F)C(F)(F)C(F)(F)C(F)(F)F (configuration not stated) yielded log10 Ki of 0.90

* * *

Entries and their Ki
assay: Inhibitory activity against clostridium histolyticum collagenase
Numeric only. Scale: nM

CC(C(=O)O)N(Cc1ccccc1[N+](=O)[O-])S(=O)(=O)c1ccc(Cl)cc1 (centres undefined) yielded Ki of 11000

CC(C(=O)NO)N(Cc1ccccc1[N+](=O)[O-])S(=O)(=O)c1ccccc1[N+](=O)[O-] (centres undefined) yielded Ki of 11

CC(C(=O)O)N(Cc1ccccc1[N+](=O)[O-])S(=O)(=O)c1cccs1 (centres undefined) yielded Ki of 2000

CC(C(=O)O)N(Cc1ccccc1[N+](=O)[O-])Sc1ccc([N+](=O)[O-])cc1[N+](=O)[O-] (centres undefined) yielded Ki of 5200

CC(C(=O)NO)N(Cc1ccccc1[N+](=O)[O-])C(=O)Nc1ccc(Cl)cc1 (centres undefined) yielded Ki of 19

Kindly consider the entry below.
CC(C(=O)NO)N(Cc1ccccc1[N+](=O)[O-])S(=O)(=O)c1cccc([N+](=O)[O-])c1 (centres undefined) yielded Ki of 10

* * *

assay: Inhibitory activity against clostridium histolyticum collagenase
Entries and their pKi
Remember, pKi is on a log scale: it is -log10 of the molar concentration.

Some solved cases for reference:
CC(C(=O)NO)N(Cc1ccccc1[N+](=O)[O-])S(=O)(=O)c1ccc([N+](=O)[O-])cc1 (stereo not drawn) yielded pKi of 7.89

CC(=O)c1ccc(S(=O)(=O)N(Cc2ccccc2[N+](=O)[O-])C(C)C(=O)NO)cc1 (stereo not drawn) yielded pKi of 8.00

CC(C(=O)O)N(Cc1ccccc1[N+](=O)[O-])C(=O)Nc1ccc(F)cc1F (stereo not drawn) yielded pKi of 5.19

Further cases:
CC(C(=O)O)N(Cc1ccccc1[N+](=O)[O-])Sc1ccccc1[N+](=O)[O-] (stereo not drawn) yielded pKi of 5.21

CC(C(=O)NO)N(Cc1ccccc1[N+](=O)[O-])C(=O)Nc1cccc2ccccc12 (stereo not drawn) yielded pKi of 8.00

CC(C(=O)NO)N(Cc1ccccc1[N+](=O)[O-])S(=O)(=O)Cc1ccccc1 (stereo not drawn) yielded pKi of 7.26

CC(C(=O)NO)N(Cc1ccccc1[N+](=O)[O-])C(=O)NS(=O)(=O)c1ccccc1 (stereo not drawn) yielded pKi of 7.92

COc1ccc(S(=O)(=O)N(Cc2ccccc2[N+](=O)[O-])C(C)C(=O)NO)cc1NC(=O)OC(C)(C)C (stereo not drawn) yielded pKi of 8.05

CC(C(=O)O)N(Cc1ccccc1[N+](=O)[O-])S(=O)(=O)c1ccc2ccccc2c1 (stereo not drawn) yielded pKi of 5.74

CC(C(=O)NO)N(Cc1ccccc1[N+](=O)[O-])S(=O)(=O)c1ccc(I)cc1 (stereo not drawn) yielded pKi of 7.47

CC(C(=O)O)N(Cc1ccccc1[N+](=O)[O-])S(=O)(=O)C(F)(F)C(F)(F)C(F)(F)C(F)(F)C(F)(F)C(F)(F)C(F)(F)C(F)(F)F (stereo not drawn) yielded pKi of 5.77

CC(C(=O)O)N(Cc1ccccc1[N+](=O)[O-])S(=O)(=O)c1ccc(I)cc1 (stereo not drawn) yielded pKi of 4.96

* * *

assay: Inhibitory activity against clostridium histolyticum collagenase
Entries and their Ki
Numeric only. Scale: nM

CC(C(=O)NO)N(Cc1ccccc1[N+](=O)[O-])S(=O)(=O)C(Cl)(Cl)Cl (configuration not stated) yielded Ki of 64

CC(C(=O)NO)N(Cc1ccccc1[N+](=O)[O-])Sc1ccc([N+](=O)[O-])cc1[N+](=O)[O-] (configuration not stated) yielded Ki of 9

CC(C(=O)NO)N(Cc1ccccc1[N+](=O)[O-])S(=O)(=O)c1ccc2ccccc2c1 (configuration not stated) yielded Ki of 8

CC(C(=O)NO)N(Cc1ccccc1[N+](=O)[O-])S(=O)(=O)c1cccc(C(F)(F)F)c1 (configuration not stated) yielded Ki of 5

Further cases:
CC(C(=O)O)N(Cc1ccccc1[N+](=O)[O-])S(=O)(=O)c1cc(Cl)cc(Cl)c1O (configuration not stated) yielded Ki of 2700

CC(C(=O)O)N(Cc1ccccc1[N+](=O)[O-])S(=O)(=O)c1ccc([N+](=O)[O-])c(Cl)c1 (configuration not stated) yielded Ki of 3100

CC(C(=O)O)N(Cc1ccccc1[N+](=O)[O-])S(=O)(=O)c1ccc(NC(=O)OC(C)(C)C)cc1 (configuration not stated) yielded Ki of 2600

* * *

test: Inhibitory activity against clostridium histolyticum collagenase
pKi: −log10 of the molar value.
Could you label it met if measured pKi is 6 or higher, and not met otherwise?

QUERY: Exam item: decide whether the reported pKi for CC(C(=O)O)N(Cc1ccccc1[N+](=O)[O-])S(=O)(=O)N(C)C (stereo not drawn) is at least 6.
RESULT: not met

QUERY: Exam item: decide whether the reported pKi for CC(C(=O)NO)N(Cc1ccccc1[N+](=O)[O-])S(=O)(=O)c1ccc(F)cc1 (stereo not drawn) is at least 6.
RESULT: met

QUERY: Exam item: decide whether the reported pKi for CC(C(=O)O)N(Cc1ccccc1[N+](=O)[O-])C(=O)Nc1ccc(F)cc1 (stereo not drawn) is at least 6.
RESULT: not met

QUERY: Exam item: decide whether the reported pKi for CC(C(=O)NO)N(Cc1ccccc1[N+](=O)[O-])C(=S)NC(=O)c1ccccc1 (stereo not drawn) is at least 6.
RESULT: met

QUERY: Exam item: decide whether the reported pKi for CC(C(=O)NO)N(Cc1ccccc1[N+](=O)[O-])S(C)(=O)=O (stereo not drawn) is at least 6.
RESULT: met

Further cases:
QUERY: Exam item: decide whether the reported pKi for CC(C(=O)O)N(Cc1ccccc1[N+](=O)[O-])S(=O)(=O)c1cccc(C(F)(F)F)c1 (stereo not drawn) is at least 6.
RESULT: met

QUERY: Exam item: decide whether the reported pKi for CC(C(=O)O)N(Cc1ccccc1[N+](=O)[O-])S(=O)(=O)c1cccc2cccnc12 (stereo not drawn) is at least 6.
RESULT: not met

QUERY: Exam item: decide whether the reported pKi for Cc1ccc(S(=O)(=O)N(Cc2ccccc2[N+](=O)[O-])C(C)C(=O)O)cc1 (stereo not drawn) is at least 6.
RESULT: not met

QUERY: Exam item: decide whether the reported pKi for CC(C(=O)O)N(Cc1ccccc1[N+](=O)[O-])S(=O)(=O)c1ccc(F)cc1 (stereo not drawn) is at least 6.
RESULT: not met

QUERY: Exam item: decide whether the reported pKi for CC(C(=O)NO)N(Cc1ccccc1[N+](=O)[O-])C(=O)Nc1cccc(Cl)c1 (stereo not drawn) is at least 6.
RESULT: met

QUERY: Exam item: decide whether the reported pKi for CC(C(=O)NO)N(Cc1ccccc1[N+](=O)[O-])S(=O)(=O)c1cccc(NC(=O)OC(C)(C)C)c1 (stereo not drawn) is at least 6.
RESULT: met

QUERY: Exam item: decide whether the reported pKi for COc1ccc(S(=O)(=O)N(Cc2ccccc2[N+](=O)[O-])C(C)C(=O)O)cc1NC(=O)OC(C)(C)C (stereo not drawn) is at least 6.
RESULT: not met
